- Target Under Test: T1, human B7-H7 recombinant protein (human, UniProt Q9UM44 23-344)
- T1 construct: also called human B7-H7 protein
- T1 sequence (looked up): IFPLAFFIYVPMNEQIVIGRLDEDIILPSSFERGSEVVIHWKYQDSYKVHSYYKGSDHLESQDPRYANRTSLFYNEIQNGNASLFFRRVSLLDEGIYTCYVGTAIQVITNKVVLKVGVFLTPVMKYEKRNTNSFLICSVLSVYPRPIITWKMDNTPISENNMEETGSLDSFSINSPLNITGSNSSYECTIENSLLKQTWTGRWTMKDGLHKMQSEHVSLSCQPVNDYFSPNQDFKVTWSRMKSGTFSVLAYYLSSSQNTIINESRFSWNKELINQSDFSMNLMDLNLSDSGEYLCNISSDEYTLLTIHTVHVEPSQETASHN
- Assay: BLI (Octet), antibody captured on AHC sensor, human B7-H7 in solution, 1:1 global fit
Readout: kon (M⁻¹ s⁻¹)
The response must be a number in M⁻¹ s⁻¹ with no trailing unit.

query: Sample PR003263 (antibody, human IgG1, kappa, V domains shown, Human IgG1; also called 77E6C4) VH: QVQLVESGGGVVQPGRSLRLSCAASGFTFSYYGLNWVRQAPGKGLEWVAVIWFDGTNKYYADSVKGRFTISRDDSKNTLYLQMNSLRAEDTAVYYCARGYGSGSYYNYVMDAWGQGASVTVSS VL: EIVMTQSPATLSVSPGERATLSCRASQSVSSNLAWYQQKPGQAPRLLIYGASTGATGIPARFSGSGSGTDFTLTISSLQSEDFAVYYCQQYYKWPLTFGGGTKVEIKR — what was its kon?
result: 81100

query: Value lookup for kon; key = PR003260 (antibody, human IgG1, kappa, V domains shown, Human IgG1; also called 70F3B1) VH: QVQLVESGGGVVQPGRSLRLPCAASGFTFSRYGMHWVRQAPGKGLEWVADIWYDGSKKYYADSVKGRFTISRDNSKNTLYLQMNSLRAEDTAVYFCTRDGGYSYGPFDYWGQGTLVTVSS VL: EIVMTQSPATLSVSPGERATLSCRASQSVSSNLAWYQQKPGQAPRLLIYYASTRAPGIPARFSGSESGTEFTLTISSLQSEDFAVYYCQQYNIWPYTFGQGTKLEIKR
result: 61100

query: Item PR003262 (antibody, human IgG1, kappa, V domains shown, Human IgG1; also called 77D5A4) VH: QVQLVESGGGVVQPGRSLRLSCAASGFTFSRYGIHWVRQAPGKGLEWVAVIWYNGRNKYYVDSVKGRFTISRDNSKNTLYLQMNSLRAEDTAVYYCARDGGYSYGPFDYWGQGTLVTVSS VL: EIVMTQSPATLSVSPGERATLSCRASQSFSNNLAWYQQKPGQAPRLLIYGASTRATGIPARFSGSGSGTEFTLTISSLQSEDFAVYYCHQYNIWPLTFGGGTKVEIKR has what recorded kon?
result: 75500

query: Data request, read-out kon, for PR003265 (antibody, human IgG1, kappa, V domains shown, Human IgG1; also called 78G8B3) VH: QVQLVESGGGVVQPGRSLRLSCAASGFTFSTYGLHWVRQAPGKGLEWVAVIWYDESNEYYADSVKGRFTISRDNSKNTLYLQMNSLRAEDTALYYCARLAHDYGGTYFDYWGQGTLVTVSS VL: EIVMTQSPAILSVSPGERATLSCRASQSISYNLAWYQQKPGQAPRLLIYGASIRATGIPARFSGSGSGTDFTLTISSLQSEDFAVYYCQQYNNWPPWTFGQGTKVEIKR
result: 49300

query: Entry PR003252 (antibody, human IgG1, kappa, V domains shown, Human IgG1; also called 53C12D4) VH: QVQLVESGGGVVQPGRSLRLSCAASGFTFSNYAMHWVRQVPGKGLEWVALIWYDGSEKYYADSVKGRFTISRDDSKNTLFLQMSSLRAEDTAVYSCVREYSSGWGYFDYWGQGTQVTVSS VL: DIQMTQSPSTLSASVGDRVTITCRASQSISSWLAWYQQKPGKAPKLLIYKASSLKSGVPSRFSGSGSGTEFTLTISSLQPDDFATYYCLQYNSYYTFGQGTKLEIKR : reported kon = ?
result: 125000
